B1: KRT33B (parent)
chain: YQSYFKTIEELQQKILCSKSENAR

# Variants of: B1
# measurement_notes: protein stability index of a GFP-peptide fusion (GPS, HEK-293T) (PSI 1-6); higher = more stable;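 note: lentivirally expressed fusions sorted by FACS into six bins by GFP to DsRed ratio, PSI derived from sequencing read proportions per bin multiplied by bin number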
# condition_parameters: c terminus: a fixed tail appended
Label MET when protein stability index is at or above 2; anything below gets NOT MET.

Lookup: I'd appreciate it if you could say whether `C17M` has protein stability index at least equal to 2.
Found: MET

Lookup: Check this variant for protein stability index at or above 2: `N22L`
Found: NOT MET

Lookup: Can `E10F` be said to have protein stability index at or above 2?
Found: MET

Lookup: Is protein stability index for `E21K` at or above 2?
Found: NOT MET

Lookup: Is the recorded value of protein stability index equal to or greater than 2 for this variant? `S3Q`
Found: MET

Lookup: Test whether the variant `I15L` records protein stability index of 2 or higher.
Found: NOT MET

Lookup: Identify whether the reported protein stability index of the following variant is 2 or greater: `E21F`
Found: MET

Lookup: In plain terms: is recorded protein stability index at least 2 for `Q2R` ?
Found: MET

Lookup: Assess whether reported protein stability index for `I8L` sits at 2 or higher.
Found: MET

Lookup: Evaluate `E9H` : protein stability index at minimum 2?
Found: MET

Lookup: API: above_or_equal(metric=protein stability index, cutoff=2) for item `S3A`
Found: MET
